# TEST SYSTEM: dopamine D2 receptors (Homo sapiens (Human))
# Sequence (P14416 whole entry): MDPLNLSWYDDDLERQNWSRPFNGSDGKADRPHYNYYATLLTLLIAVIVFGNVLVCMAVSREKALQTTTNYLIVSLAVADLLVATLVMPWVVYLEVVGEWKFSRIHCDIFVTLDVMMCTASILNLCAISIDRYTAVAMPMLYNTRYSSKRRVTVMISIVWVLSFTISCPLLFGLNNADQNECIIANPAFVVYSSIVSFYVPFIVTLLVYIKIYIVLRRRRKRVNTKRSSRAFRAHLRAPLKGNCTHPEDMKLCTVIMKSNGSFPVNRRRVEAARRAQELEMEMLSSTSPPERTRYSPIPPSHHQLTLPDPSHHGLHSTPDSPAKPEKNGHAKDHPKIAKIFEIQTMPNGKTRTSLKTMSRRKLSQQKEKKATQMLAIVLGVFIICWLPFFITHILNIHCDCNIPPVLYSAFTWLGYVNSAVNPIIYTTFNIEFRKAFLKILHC
# ASSAY: Affinity for dopamine D2 receptors, radioligand competition with [3H]-Methylspiperone
# SETUP CONDITIONS: 293T membrane transiently expressing D2
TEST READOUT: Ki

COMPOUND: Fc1ccc(CCN2CCN3c4cccc5scc(c45)CC3C2)cc1 (stereo not shown)
ASSAY RESULT: 7500 nM

COMPOUND: O=C1c2ccccc2CN1CCCCN1CCN2c3cccc4scc(c34)CC2C1 (stereo not shown)
ASSAY RESULT: 490 nM

COMPOUND: c1ccc(OCCN2CCN3c4cccc5scc(c45)CC3C2)cc1 (stereo not shown)
ASSAY RESULT: 5500 nM

COMPOUND: CN(C)C(=O)N[C@H]1CC[C@H](CCN2CCN3c4cccc5scc(c45)CC3C2)CC1 (single isomer, unassigned; (-)) [(−)-I-27]
ASSAY RESULT: 120 nM
